B1: Twister Ribozyme (parent)
chain: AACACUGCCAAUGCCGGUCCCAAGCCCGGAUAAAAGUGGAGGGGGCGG

Variants of: B1
method description: self-cleavage, relative activity (ratio to wild type); higher = more cleavage; co-transcriptional
property label: self-cleavage
// keep it numeric: no unit symbol after the value

Example cases with answers are listed next.
>>> recorded_result("G45U")
0.902
>>> recorded_result("A11C G28C")
0.431
>>> recorded_result("U6C G16A")
0.318
>>> recorded_result("G41A G43C")
0.14
>>> recorded_result("A1U G42C")
0.0572

Give reported self-cleavage value for C14U A23U 0.722

Give reported self-cleavage value for G42A C46A 0.251
